experiment: Cmax in African green monkey assessed as prodrug conversion by measuring (2R,3R,4S,5R)-2-(4-aminopyrrolo[2,1-f][1,2,4]triazin-7-yl)-3,4-dihydroxy-5-(hydroxymethyl)tetrahydrofuran-2-carbonitrile at 60 mg/kg, po measured upto 24 hrs by LC-MS/MS analysis; format: ADME, organism-based; design: dose 60 mg/kg, time < 24 hrs, route po; conditions: chlorocebus sabaeus, in vivo
readout type: Cmax (µM)
Give bare numbers, in µM.

Please report the recorded Cmax for "CC(C)C(=O)OC[C@H]1O[C@@](C#N)(c2ccc3c(N)ncnn23)[C@H](O)[C@@H]1O" .
22.5

----------
Biological target: UniProtKB O00748
Sequence (O00748 whole entry): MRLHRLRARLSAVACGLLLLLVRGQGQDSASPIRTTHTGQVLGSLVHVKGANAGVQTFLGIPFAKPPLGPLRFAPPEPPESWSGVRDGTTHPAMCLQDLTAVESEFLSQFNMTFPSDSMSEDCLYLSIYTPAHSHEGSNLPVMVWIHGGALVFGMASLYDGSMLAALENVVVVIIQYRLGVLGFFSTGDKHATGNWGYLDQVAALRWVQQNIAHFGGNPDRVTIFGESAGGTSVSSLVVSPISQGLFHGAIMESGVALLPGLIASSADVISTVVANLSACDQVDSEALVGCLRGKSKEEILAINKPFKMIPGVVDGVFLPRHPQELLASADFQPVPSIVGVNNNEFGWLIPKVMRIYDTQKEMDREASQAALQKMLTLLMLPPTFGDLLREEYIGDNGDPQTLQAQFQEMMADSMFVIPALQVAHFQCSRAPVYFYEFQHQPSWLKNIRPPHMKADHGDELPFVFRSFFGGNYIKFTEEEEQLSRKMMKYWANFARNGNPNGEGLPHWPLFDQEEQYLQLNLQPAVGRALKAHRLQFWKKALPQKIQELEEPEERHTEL
Assay: Stability of compound assessed as human recombinant CES2-mediated compound hydrolysis by measuring half life at pH 7.4 using oseltamivir as substrate measured upto 120 mins by LC-MS/MS analysis
Type: ADME
Conditions: recombinant CES2, pH 7.4, probe oseltamivir
readout type: half-life

Which half-life value is on record for CC(C)C(=O)OC[C@H]1O[C@@](C#N)(c2ccc3c(N)ncnn23)[C@H](O)[C@@H]1O [OBELDESIVIR] ?
< 2 min
